- assayedTarget: T1, human B7-H4 extracellular domain (human, UniProt Q7Z7D3 29-258);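 note: tested antibody premixed 1:1 with biotinylated parental antibody, 2 h at room temperature on coated ECD, bound biotin detected via streptavidin-HRP, absorbance read at 450 nm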
- T1 construct: For SPR it says only human B7-H4 ECD; also called Hu B7-H4 ECD; huB7-H4 ECD
- T1 sequence: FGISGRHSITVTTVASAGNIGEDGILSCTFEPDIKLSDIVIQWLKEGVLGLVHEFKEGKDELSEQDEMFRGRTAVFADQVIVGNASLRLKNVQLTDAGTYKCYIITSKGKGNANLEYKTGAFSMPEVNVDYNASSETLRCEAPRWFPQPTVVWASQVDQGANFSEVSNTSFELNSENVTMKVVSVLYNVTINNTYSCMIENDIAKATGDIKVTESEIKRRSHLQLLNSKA
- measurementNotes: competition ELISA on coated huB7-H4 ECD; competitor biotinylated 0052 (by series, not given)
Give IC50 for every item shown.
Field: numeric (nM). Do not append units.

IC50 in this record for B7-H4 antibody 0267 (antibody, human IgG1, kappa, V domains shown) VH: EVQLVESGGGLVQPGGSLRLSCAASGGSFSGYYWNWVRQAPGKGLEWIGEINHSGSTKYNPSLKSRFTISGDNAKNSFYLQMNSLRAEDTAVYYCVRGLYNWNVDSWGQGTLVTVSS VL: DIQMTQSPSSLSASVGDRVTITCRASQGIRNDLGWYQQKPGKAPKRLIYVASSLQSGVPSRFSGSGSGTEFTLTISSLQPEDFATYYCLQHNSYPYTFGQGTKLEIKR : 9.42

IC50 in this record for B7-H4 antibody 1082 (antibody, human IgG1, kappa, V domains shown) VH: EVQLVESGGGLVQPGGSLRLSCAASGGSFSGYYWNWVRQAPGKGLEWIGEINHSGSATYNPSLKSRVTISVDTAKNSLYLQMNSLRAEDTAVYYCARGLYNWNVDHWGQGTLVTVSS VL: DIQMTQSPSSLSASVGDRVTITCRASQGIRNDLGWYQQKPGKAPKRLIYAASSLQSGVPSRFSGSGSGTDFTLTISSLQPEDFATYYCLQHNAYPRTFGGGTKVEIKR : 2
